Some compounds, each annotated with its measured IC50.
Biological target: FKBPwt (Homo sapiens, UniProt P62942)
Construct: made in house
Sequence (P62942 whole entry): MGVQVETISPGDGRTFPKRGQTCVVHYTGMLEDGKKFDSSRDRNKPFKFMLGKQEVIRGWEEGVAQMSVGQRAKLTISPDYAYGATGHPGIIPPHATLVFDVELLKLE
Assay: Competitive fluorescence polarization (FP) binding assay of rapalogs to FKBP
Details: rapamycin C24 analogs, Table 4; read-out: FKBPwt FP binding assay IC50
ASSAY ENDPOINT: IC50 (nM)

COMPOUND	READOUT UNIT	READOUT NUMBER
COC1CC2CCC(C)C(O)(O2)C(=O)C(=O)N2CCCCC2C(=O)OC(C(C)CC2CCC(O)C(OC)C2)CC(=NOCC(N)=O)C(C)C=C(C)C(O)C(OC)C(=O)C(C)CC(C)C=CC=CC=C1C (single isomer, unassigned) [Compound 16]	nM	204
COC1CC2CCC(C)C(O)(O2)C(=O)C(=O)N2CCCCC2C(=O)OC(C(C)CC2CCC(O)C(OC)C2)CC(=NOCC(=O)O)C(C)C=C(C)C(O)C(OC)C(=O)C(C)CC(C)C=CC=CC=C1C (single isomer, unassigned) [Compound 13]	nM	7960
COC1CC2CCC(C)C(O)(O2)C(=O)C(=O)N2CCCCC2C(=O)OC(C(C)CC2CCC(O)C(OC)C2)CC(=NOCC(N)=O)C(C)C=C(C)C(O)C(OC)C(=O)C(C)CC(C)C=CC=CC=C1C (single isomer, unassigned) [Compound 15]	nM	1150

---

Target: FKBPwt (Homo sapiens, UniProt P62942)
Construct: made in house
Test: Competitive fluorescence polarization (FP) binding assay of rapalogs to FKBP
Conditions: C7 rapalogs; read-out: FKBPwt FP binding assay IC50
pIC50: −log10 of the molar value.
ASSAY ENDPOINT: pIC50

COMPOUND	EXPERIMENTAL SYSTEM	READOUT NUMBER
CCc1ccc([C@H]2C[C@@H]3CC[C@@H](C)[C@@](O)(O3)C(=O)C(=O)N3CCCC[C@H]3C(=O)O[C@H]([C@H](C)C[C@@H]3CC[C@@H](O)[C@H](OC)C3)CC(=O)[C@H](C)/C=C(\C)[C@@H](O)[C@@H](OC)C(=O)[C@H](C)C[C@H](C)/C=C/C=C/C=C/2C)s1	FKBPwt (Homo sapiens, UniProt P62942)	8.60
CO[C@@H]1C[C@H](C[C@@H](C)[C@@H]2CC(=O)[C@H](C)/C=C(\C)[C@@H](O)[C@@H](OC)C(=O)[C@H](C)C[C@H](C)/C=C/C=C/C=C(\C)[C@H](c3ccc(C(C)(C)C)s3)C[C@@H]3CC[C@@H](C)[C@@](O)(O3)C(=O)C(=O)N3CCCC[C@H]3C(=O)O2)CC[C@H]1O	FKBPwt (Homo sapiens, UniProt P62942)	8.47
CO[C@@H]1C[C@H](C[C@@H](C)[C@@H]2CC(=O)[C@H](C)/C=C(\C)[C@@H](O)[C@@H](OC)C(=O)[C@H](C)C[C@H](C)/C=C/C=C/C=C(\C)[C@@H](c3c[nH]c4ccccc34)C[C@@H]3CC[C@@H](C)[C@@](O)(O3)C(=O)C(=O)N3CCCC[C@H]3C(=O)O2)CC[C@H]1O	FKBPwt (Homo sapiens, UniProt P62942)	8.11
COc1ccc(C2CC3CCC(C)C(O)(O3)C(=O)C(=O)N3CCCCC3C(=O)OC(C(C)CC3CCC(O)C(OC)C3)CC(=O)C(C)C=C(C)C(O)C(OC)C(=O)C(C)CC(C)C=CC=CC=C2C)c(OC)c1 (single isomer, unassigned) [Compound 42]	FKBPwt (Homo sapiens, UniProt P62942)	8.66
CO[C@@H]1C[C@H](C[C@@H](C)[C@@H]2CC(=O)[C@H](C)/C=C(\C)[C@@H](O)[C@@H](OC)C(=O)[C@H](C)C[C@H](C)/C=C/C=C/C=C(\C)[C@@H](NS(C)(=O)=O)C[C@@H]3CC[C@@H](C)[C@@](O)(O3)C(=O)C(=O)N3CCCC[C@H]3C(=O)O2)CC[C@H]1O	FKBPwt (Homo sapiens, UniProt P62942)	8.60
COC(=O)N[C@@H]1C[C@@H]2CC[C@@H](C)[C@@](O)(O2)C(=O)C(=O)N2CCCC[C@H]2C(=O)O[C@H]([C@H](C)C[C@@H]2CC[C@@H](O)[C@H](OC)C2)CC(=O)[C@H](C)/C=C(\C)[C@@H](O)[C@@H](OC)C(=O)[C@H](C)C[C@H](C)/C=C/C=C/C=C/1C	FKBPwt (Homo sapiens, UniProt P62942)	8.59
COc1ccc(C2CC3CCC(C)C(O)(O3)C(=O)C(=O)N3CCCCC3C(=O)OC(C(C)CC3CCC(O)C(OC)C3)CC(=O)C(C)C=C(C)C(O)C(OC)C(=O)C(C)CC(C)C=CC=CC=C2C)c(OC)c1 (single isomer, unassigned) [Compound 43]	FKBPwt (Homo sapiens, UniProt P62942)	7.70
CCOC1C[C@@H]2CC[C@@H](C)[C@@](O)(O2)C(=O)C(=O)N2CCCC[C@H]2C(=O)OC([C@H](C)C[C@@H]2CC[C@@H](O)[C@H](OC)C2)CC(=O)[C@H](C)/C=C(\C)[C@@H](O)[C@@H](OC)C(=O)[C@H](C)C[C@H](C)/C=C/C=C/C=C/1C (stereo partly drawn) [Compound 27]	FKBPwt (Homo sapiens, UniProt P62942)	8.59
CO[C@@H]1C[C@H](C[C@@H](C)[C@@H]2CC(=O)[C@H](C)/C=C(\C)[C@@H](O)[C@@H](OC)C(=O)[C@H](C)C[C@H](C)/C=C/C=C/C=C(\C)[C@H](c3c[nH]c4ccccc34)C[C@@H]3CC[C@@H](C)[C@@](O)(O3)C(=O)C(=O)N3CCCC[C@H]3C(=O)O2)CC[C@H]1O	FKBPwt (Homo sapiens, UniProt P62942)	8.23
CCc1ccc([C@@H]2C[C@@H]3CC[C@@H](C)[C@@](O)(O3)C(=O)C(=O)N3CCCC[C@H]3C(=O)O[C@H]([C@H](C)C[C@@H]3CC[C@@H](O)[C@H](OC)C3)CC(=O)[C@H](C)/C=C(\C)[C@@H](O)[C@@H](OC)C(=O)[C@H](C)C[C@H](C)/C=C/C=C/C=C/2C)s1	FKBPwt (Homo sapiens, UniProt P62942)	8.62
CCOC1C[C@@H]2CC[C@@H](C)[C@@](O)(O2)C(=O)C(=O)N2CCCC[C@H]2C(=O)OC([C@H](C)C[C@@H]2CC[C@@H](O)[C@H](OC)C2)CC(=O)[C@H](C)/C=C(\C)[C@@H](O)[C@@H](OC)C(=O)[C@H](C)C[C@H](C)/C=C/C=C/C=C/1C (stereo partly drawn) [Compound 28]	FKBPwt (Homo sapiens, UniProt P62942)	8.43
CO[C@@H]1C[C@H](C[C@@H](C)[C@@H]2CC(=O)[C@H](C)/C=C(\C)[C@@H](O)[C@@H](OC)C(=O)[C@H](C)C[C@H](C)/C=C/C=C/C=C(\C)[C@@H](OC(C)C)C[C@@H]3CC[C@@H](C)[C@@](O)(O3)C(=O)C(=O)N3CCCC[C@H]3C(=O)O2)CC[C@H]1O	FKBPwt (Homo sapiens, UniProt P62942)	8.66

---

Molecular target: FKBPwt (Homo sapiens, UniProt P62942)
Construct: made in house
Experiment: Competitive fluorescence polarization (FP) binding assay of rapalogs to FKBP
Conditions: =IC50/IC50 of rapamycin; C7 rapalogs
Entries annotated with measured fold loss in affinity (cf rapamycin)

COMPOUND	fold loss in affinity (cf rapamycin)
COc1ccc(C2CC3CCC(C)C(O)(O3)C(=O)C(=O)N3CCCCC3C(=O)OC(C(C)CC3CCC(O)C(OC)C3)CC(=O)C(C)C=C(C)C(O)C(OC)C(=O)C(C)CC(C)C=CC=CC=C2C)c(OC)c1 (single isomer, unassigned) [Compound 42]	1.0
CCOC1C[C@@H]2CC[C@@H](C)[C@@](O)(O2)C(=O)C(=O)N2CCCC[C@H]2C(=O)OC([C@H](C)C[C@@H]2CC[C@@H](O)[C@H](OC)C2)CC(=O)[C@H](C)/C=C(\C)[C@@H](O)[C@@H](OC)C(=O)[C@H](C)C[C@H](C)/C=C/C=C/C=C/1C (stereo partly drawn) [Compound 28]	1.6
CO[C@@H]1C[C@H](C[C@@H](C)[C@@H]2CC(=O)[C@H](C)/C=C(\C)[C@@H](O)[C@@H](OC)C(=O)[C@H](C)C[C@H](C)/C=C/C=C/C=C(\C)[C@@H](NS(C)(=O)=O)C[C@@H]3CC[C@@H](C)[C@@](O)(O3)C(=O)C(=O)N3CCCC[C@H]3C(=O)O2)CC[C@H]1O [Compound 33]	1.1

---

Readings of fold loss in affinity (cf rapamycin) for the listed compounds
Target: FKBPwt (Homo sapiens, UniProt P62942)
Construct: made in house
Experiment: Competitive fluorescence polarization (FP) binding assay of rapalogs to FKBP
Conditions: =IC50/IC50 of rapamycin; C7 rapalogs

COMPOUND	fold loss in affinity (cf rapamycin)
CO[C@@H]1C[C@H](C[C@@H](C)[C@@H]2CC(=O)[C@H](C)/C=C(\C)[C@@H](O)[C@@H](OC)C(=O)[C@H](C)C[C@H](C)/C=C/C=C/C=C(\C)[C@H](c3ccco3)C[C@@H]3CC[C@@H](C)[C@@](O)(O3)C(=O)C(=O)N3CCCC[C@H]3C(=O)O2)CC[C@H]1O [Compound 35]	13
COC(=O)N[C@@H]1C[C@@H]2CC[C@@H](C)[C@@](O)(O2)C(=O)C(=O)N2CCCC[C@H]2C(=O)O[C@H]([C@H](C)C[C@@H]2CC[C@@H](O)[C@H](OC)C2)CC(=O)[C@H](C)/C=C(\C)[C@@H](O)[C@@H](OC)C(=O)[C@H](C)C[C@H](C)/C=C/C=C/C=C/1C [Compound 31]	1.1
